So I've got a bunch of sequences here, and I need their binding signal values.
Biological target: OsWRKY34 (Oryza sativa, UniProt Q0JBA9 1-250)
Sequence (Q0JBA9 entry or part of it): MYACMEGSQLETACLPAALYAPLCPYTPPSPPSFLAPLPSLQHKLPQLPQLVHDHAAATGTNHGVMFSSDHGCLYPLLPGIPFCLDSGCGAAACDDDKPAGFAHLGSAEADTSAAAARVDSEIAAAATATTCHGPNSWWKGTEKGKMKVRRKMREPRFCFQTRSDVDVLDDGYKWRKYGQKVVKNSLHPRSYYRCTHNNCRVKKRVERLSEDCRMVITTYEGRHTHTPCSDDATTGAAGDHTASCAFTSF
Assay: protein-binding microarray (RPBM); PBS, 2% BSA, 51.3 ng/ul salmon testes DNA, 50 uM zinc acetate, 200 nM TF, 25 C, 1 h; high values mean tight binding
Conditions: protein: recombinant; tags: N-terminal polyhistidine and DsRed monomer fusion (pET32a); label: CyDye5-dUTP incorporated in the synthesized complementary strand; 3' TTTTT single-stranded linker to array surface; dsDNA, one strand shown
Over roughly 68,000 sequences, “fluorescence intensity (a.u.)” has its median near 9,100; the highest 2% begin near 16,000. The entries come from a sample that favours the highest values as a whole.

Here are 6 sequences. What values of binding signal were reported for them?
1. CCGTTGACATTTTATCTAACGTTTGACCATTCGTCTTATTCGGAGTCACCTAGTGCAG
2. TAGATGACGTCGTTGACTTTTTCTCACATGTTTGACCATTCGGAGTCACCTAGTGCAG
3. CACTCCGCTGCCGCCCGCCGGAAGGGGAGGGGAGGAGGGGCGGAGTCACCTAGTGCAG
4. GGGGAGGCGGGGTGGCGGGAGGGAAGGCGGCGGCGGCGCCCGGAGTCACCTAGTGCAG
5. TGACACCGTTGACTTTTTTGTCTAAAGTTTAACCATTCGTCGGAGTCACCTAGTGCAG
6. CCGCCGTTGACTTTTTGTCTAACGTTTGACCATTCGTCTTCGGAGTCACCTAGTGCAG

15900 fluorescence intensity (a.u.)
28800 fluorescence intensity (a.u.)
11700 fluorescence intensity (a.u.)
12700 fluorescence intensity (a.u.)
32400 fluorescence intensity (a.u.)
36200 fluorescence intensity (a.u.)

Here are 8 sequences. What values of binding signal were reported for them?
1. TAATGGGATGGGTGAAAAGTTATTGTTTTTGGTAGGCCTTCGGAGTCACCTAGTGCAG
2. TGTTGTTTTTTATGTGTGAACCTCTTTGATCTCAATGCAACGGAGTCACCTAGTGCAG
3. TTTCTCACATGTTTGACCATTCGTCTTATTCAAAAATTTTCGGAGTCACCTAGTGCAG
4. GGGGCGCCGCCGTTCGTCCTGCTGCTTCCGCCGCATCCTGCGGAGTCACCTAGTGCAG
5. GGCCGGGGAGGGAGGGGCGCCGTCGTCCTGCTGCATCCTGCGGAGTCACCTAGTGCAG
6. TTTTCTCACATGTTTGACCATTCGTCTTATTCAAAAATTTCGGAGTCACCTAGTGCAG
7. ATCACAATAGTAACTATACTCTACAATCCATGGTTTCTTACGGAGTCACCTAGTGCAG
8. CAATGTTGTCTTGACTTTTTTTTAACGTTTAACCATTTGTCGGAGTCACCTAGTGCAG

9640 fluorescence intensity (a.u.)
8510 fluorescence intensity (a.u.)
12800 fluorescence intensity (a.u.)
9650 fluorescence intensity (a.u.)
20700 fluorescence intensity (a.u.)
9990 fluorescence intensity (a.u.)
8960 fluorescence intensity (a.u.)
8940 fluorescence intensity (a.u.)

Here are 4 sequences. What values of binding signal were reported for them?
1. GACGCCGTTGATTTTTTCTCACATGTTTGACCATTCGTCTCGGAGTCACCTAGTGCAG
2. GGAGGGGTTGGAAAAATTCGGTGTTCGTGGCCGCCTTCACCGGAGTCACCTAGTGCAG
3. ACCCAATCTCAATTTGCCCTGTTGCCAACCCTAGTGATGACGGAGTCACCTAGTGCAG
4. AATGCAACCATTAAGTTGTCGTTTAGTTGACTTTGTCTACCGGAGTCACCTAGTGCAG

1: 18000 fluorescence intensity (a.u.); 2: 13400 fluorescence intensity (a.u.); 3: 8520 fluorescence intensity (a.u.); 4: 8690 fluorescence intensity (a.u.)

Here are 5 sequences. What values of binding signal were reported for them?
1. AGACAAACTCTGGTTTCCGTGTCCAACGTTTGACCGTTCGCGGAGTCACCTAGTGCAG
2. ATCGTACCATTATTCAAAATTTTAAATAGTTACATGTTCACGGAGTCACCTAGTGCAG
3. TTAACTTTTACTCTAATTTATTCTCCTGTACCTTTTTATACGGAGTCACCTAGTGCAG
4. TTAGTGATTTCTTGTCTCCTGATCATCTGTAGTCTGTAGACGGAGTCACCTAGTGCAG
5. GGAGGGGCGGTGGCCGCCGGCGGCCCGCGCGGCGGGAGCGCGGAGTCACCTAGTGCAG

["11300 fluorescence intensity (a.u.)", "8120 fluorescence intensity (a.u.)", "8250 fluorescence intensity (a.u.)", "8160 fluorescence intensity (a.u.)", "9240 fluorescence intensity (a.u.)"]

Here are 8 sequences. What values of binding signal were reported for them?
1. TCCACTTCCAACATCTACTATCTTTTCTCACGCTTTTTCCCGGAGTCACCTAGTGCAG
2. CTCCTCTTTGTGTGTAGACTGAAAAGGTGGAAAGTTTACCCGGAGTCACCTAGTGCAG
3. GTATGCCATTCGCCCAAGATGCTTTTGCTTCGCATGGACCCGGAGTCACCTAGTGCAG
4. GCTCTAACACACCTTCATCATGCATGCATATGTGCTATTTCGGAGTCACCTAGTGCAG
5. CTCGTTATATCTATTATAAATTTTTTAATATACATGTTATCGGAGTCACCTAGTGCAG
6. TAATTGTCTTCGTCAGGATCTTCTGCTAATTGTTTGATTTCGGAGTCACCTAGTGCAG
7. AGTGTCTTTGACTTTTTGTTTGTAACGTTTGACCATTCGTCGGAGTCACCTAGTGCAG
8. AGGGCGCCGTCGTTCGTCATGCTGCTTCCGCCGCATCCTGCGGAGTCACCTAGTGCAG

1. 8630 fluorescence intensity (a.u.)
2. 9750 fluorescence intensity (a.u.)
3. 8540 fluorescence intensity (a.u.)
4. 8080 fluorescence intensity (a.u.)
5. 9040 fluorescence intensity (a.u.)
6. 8680 fluorescence intensity (a.u.)
7. 21900 fluorescence intensity (a.u.)
8. 9240 fluorescence intensity (a.u.)

Here are 6 sequences. What values of binding signal were reported for them?
1. CCAATGATATGTGCCGAAGTTGTATTTATCGAGAGATATTCGGAGTCACCTAGTGCAG
2. CGACTTTGTTTTACCATTGTTTTTTTTGTCTTGTTTTAGTCGGAGTCACCTAGTGCAG
3. ATTGTGGACTGTTTGACCTCCAGTTTGGACTGTAGGAATTCGGAGTCACCTAGTGCAG
4. ATAGATGACGCCGTTGATTTTTTCTCACATGTTTGACCGTCGGAGTCACCTAGTGCAG
5. AGGATCGAGGAATTCAGTTAAGCAAAAATATTTATACATGCGGAGTCACCTAGTGCAG
6. ACAAATTCCTGACTTCACGGTTTTCTATTTGGTTGTAATACGGAGTCACCTAGTGCAG

1: 9850 fluorescence intensity (a.u.); 2: 10600 fluorescence intensity (a.u.); 3: 8060 fluorescence intensity (a.u.); 4: 15600 fluorescence intensity (a.u.); 5: 47600 fluorescence intensity (a.u.); 6: 9590 fluorescence intensity (a.u.)
